B1: SPSB1 (parent)
chain: DMRDPTYRPLKQELQGLDYCKPTR

Variants of: B1
Assay: protein stability index of a GFP-peptide fusion (GPS, HEK-293T) (PSI 1-6); higher = more stable;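 further: lentivirally expressed fusions sorted by FACS into six bins by GFP to DsRed ratio, PSI derived from sequencing read proportions per bin multiplied by bin number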
Conditions: c terminus: a fixed tail appended

variant-code: L14Y
protein stability index: 3.49
//
variant-code: L17P
protein stability index: 3.96
//
variant-code: L17S
protein stability index: 4.18
//
variant-code: Q12Y
protein stability index: 3.12
//
variant-code: Y19T
protein stability index: 4.32
//
variant-code: K21Y
protein stability index: 2.18
//
variant-code: K11E
protein stability index: 4.03
//
variant-code: L17E
protein stability index: 4.37
//
variant-code: R3W
protein stability index: 3.14
//
variant-code: C20E
protein stability index: 4.41
//
variant-code: T23L
protein stability index: 2.99
//
variant-code: L17F
protein stability index: 3.08
//
variant-code: E13L
protein stability index: 2.42
//
variant-code: P22H
protein stability index: 4.15
//
variant-code: T23V
protein stability index: 3.29
//
variant-code: G16L
protein stability index: 3.45

The origin of these recorded values is the supplement of paper PMC10567573.
